- Test system: OVCAR-4 ovarian
- Experimental details: NCI tumour cell line growth inhibition, 48 h
Observable: TGI

Before answering, review these 5 worked examples.
# Compound, TGI
records = [
    ("CCN(CC)CCSc1c2ccccc2nc2cc(NCC(=O)Nc3ccccc3-c3ccccc3NC(=O)CNc3ccc4c(SCCN(CC)CC)c5ccccc5nc4c3)ccc12", "> 100 µM"),
    ("OCCN(CCO)c1ncnc2c1ncn2Cc1ccc(CCl)cc1", "35.4 µM"),
    ("CCOC(=O)c1csc(NC(=O)CN2CCOCC2)n1", "> 100 µM"),
    ("COc1ccc(N/N=C2\\CCOc3ccc(C)cc3C2=O)cc1", "> 100 µM"),
    ("CC(=O)OC1CC(OC2C(O)CC(OC3C(O)CC(OC4CCC5(C)C(CCC6C5CC(O)C5(C)C(C7=CC(=O)OC7)CCC65O)C4)OC3C)OC2C)OC(C)C1OC1OC(CO)C(O)C(O)C1O (centres undefined)", "0.207 µM"),
]

For the next question, use this compound.
// query Quick check: TGI of `O=c1ccc(-c2ccccc2)n[nH]1` ?
// result > 100 µM

###

- Test system: KM12 colon
- Experimental details: NCI tumour cell line growth inhibition, 48 h
TGI values by entry
Note: unit µM is implicit; provide only the numeric part.

Reference set, count: 3
# Compound, Quantity unit, Reported value
measured = [
    ("CCN1CCN(Cc2ccc(NC(=O)c3cccc(C#Cc4cccc5[nH]nc(N)c45)c3)cc2C(F)(F)F)CC1", "µM", 1.33),
    ("C1=C2/CC[C@H](Sc3ccccc3)C2C2(CCCCC/1)OCCO2 (stereo not given in full)", "µM", 94),
    ("Cc1nc2sccn2c1-c1csc(Nc2ccccc2Cl)n1", "µM", 24.5),
]

Kindly consider the entry below.
// query Give the measured TGI of `C=CC(=O)Nc1cc(Nc2ncc(C(=O)OC(C)C)c(-c3cn(C)c4ccccc34)n2)c(OC)cc1N(C)CCN(C)C` .
// result 13.9

###

The entries below are paired with their reported TGI.
- System: U251 CNS
- Experimental details: NCI tumour cell line growth inhibition, 48 h

# Compound, Tested system, Reported value
records = [
    ("CC[C@@H]1CC[C@@H]2[C@H](CC[C@]3(C)[C@@H](OC(C)=O)CC[C@@H]23)[C@H]1COC(C)=O", "U251 CNS", "45 µM"),
    ("C=CCOc1ccc2c(C)cc(=O)oc2c1C", "U251 CNS", "> 100 µM"),
    ("Cc1ccc(CN2CCC(C(=O)Nc3ccc(-c4cc5ccccc5[nH]4)cc3)CC2)o1", "U251 CNS", "> 100 µM"),
    ("COc1ccc2c(c1)/C(=C/CCN(C)C)c1ccccc1S2", "U251 CNS", "> 100 µM"),
    ("O=C(NC(=O)c1ccccc1[N+](=O)[O-])Nc1ccc(Oc2ncc(Br)cn2)c(Cl)c1", "U251 CNS", "> 64.4 µM"),
]

// query Which TGI value belongs to `Cc1ccccc1C(=O)N1CCc2c([nH]c3ccccc23)C1` ?
// result 41.3 µM

// query What about `CCOC(=O)CSc1c(C(=O)OCC)c(=O)n(-c2ccccc2)c(=S)n1-c1ccccc1` ?
// result > 100 µM

// query Similarly, `COc1cccc(-c2cc(-c3cccc(NS(C)(=O)=O)c3)nc(N)c2C#N)c1O` ?
// result > 100 µM

// query Repeat with `Nc1nc(Cl)cc(NCC2(CO)CC(=O)C2)n1`
// result > 100 µM

// query Now this one: `COc1cc2nc3n(c(=O)c2cc1OC)-c1ccc([N+](=O)[O-])cc1C3=O`
// result > 100 µM

###

- Tested on: NCI/ADR-RES ovarian
- Experimental details: NCI tumour cell line growth inhibition, 48 h; in the data active means GI50 below about 0.43 µM; inactive means the rest
The categories you may choose from are active, inactive

# Record smiles, Label value
records = [
    ("COc1cnc2c(c1)C(=O)c1c-2n(CCCN2CCOCC2)c(=O)c2cc(F)ccc12", "active"),
    ("CCN1CCN(Cc2ccc(NC(=O)c3cccc(C#Cc4cccc5[nH]nc(N)c45)c3)cc2C(F)(F)F)CC1", "inactive"),
]

Now take the following compound into account.
// query What did the test return for `O=C(Nc1ccc(-n2ccc3c(NC(=O)c4ccccc4)nccc32)cc1)c1ccc(Cl)c(C(F)(F)F)c1` ?
// result inactive

###

- Test system: DU-145 prostate
- Experimental details: NCI tumour cell line growth inhibition, 48 h; in the data active means GI50 below about 0.43 µM; inactive means the rest
Entry note: the call must match one of active, inactive

// query Recorded test outcome, item `Nc1ccccc1C#C/C=C\C#Cc1ccccc1OC(F)(F)F`
// result inactive

// query What would you report for CC1CCc2nc[nH]c(=O)c21 (centres undefined) ?
// result inactive

###

Known TGI of a selection of compounds
- Tested on: ACHN renal
- Experimental details: NCI tumour cell line growth inhibition, 48 h

# Compound, Observable, Reported value
rows = [
    ("Nn1c(-c2ccccc2)nn(C(=O)c2ccccc2)c1=O", "TGI", "> 100 µM"),
    ("Cc1cc(Cc2cc(C)c(N)cc2N)c(N)cc1N", "TGI", "> 100 µM"),
    ("Nc1nc(-n2c(-c3ccccc3)nc3c(Br)cc(Br)cc3c2=O)nnc1-c1cccc(Cl)c1Cl", "TGI", "40.2 µM"),
    ("C1CN(c2nc3c(nnc4nc(N5CCOCC5)sc43)s2)CCO1", "TGI", "> 100 µM"),
]

// query Look up TGI for this compound: `Cc1ccc(N=NC(=Nc2ccccc2)c2ccc(N(CCC#N)CCC#N)cc2)cc1`
// result > 100 µM

// query Now give it for `COC(=O)CC[N+]1=CCC(c2ccccc2)(c2ccccc2)O1` too.
// result > 100 µM

// query Same again, this time with `Cc1ccc([N+](=O)[O-])cc1NC1=NCCO1`
// result > 100 µM

// query Queued: CC1(C)OC(=O)N(c2ccccc2)C12C=Cc1cc([N+](=O)[O-])cc([N+](=O)[O-])c1O2 (stereo not given)
// result > 100 µM

// query Request: `O=C1NC(=NCCc2cccc(F)c2)S/C1=C\c1ccc2ncccc2c1`
// result > 25 µM

// query Field entry: `CN1CCN(C2=NCCO2)CC1`
// result > 100 µM

// query Cool, now `COc1ccc2c(c1)sc1nc(-c3ccccc3)c(-c3cccc4ccccc34)n12`
// result > 100 µM

// query Now the same for `COc1cc2ccnc([C@@H](OC(=O)c3ccccc3)c3ccc(OC)c(OC)c3OC)c2cc1OC`
// result > 100 µM

// query Now try `CC(C)CCS(=O)(=O)OCCCCOS(=O)(=O)CCC(C)C` .
// result > 100 µM

// query Then what about the compound COC(=O)C1(C(C)C)CCc2c(OC)ccc(OC)c2C1=O (stereo not given) ?
// result > 100 µM

###

- Test system: A549 NSCLC
- Experimental details: NCI tumour cell line growth inhibition, 48 h
Observable: TGI

Example cases with answers are listed next.
# Compound, Tested system, TGI
rows = [
    ("C=CCN1C[C@H](C)N([C@H](c2ccc(C(=O)NC(CC)CC)cc2)c2cccc(OC)c2)C[C@H]1C", "A549 NSCLC", "> 100 µM"),
    ("NS(=O)(=O)OC[C@@H]1C[C@@H](n2ccc3c(NC4CCc5ccccc54)ncnc32)C[C@@H]1O (some centres undefined)", "A549 NSCLC", "47.7 µM"),
    ("O=C(N/N=C(/COc1ccc(Cl)cc1)N=Cc1ccncc1)c1ccncc1", "A549 NSCLC", "> 100 µM"),
]

Attention now turns to another entry.
// query Please state recorded TGI (tested on A549 NSCLC) of COc1ccccc1N1C(=O)C2c3[nH]c4ccccc4c3C3CCC(C(C)(C)C)CC3C2C1=O (centres undefined)
// result > 100 µM

###

Listed molecules paired with reported GI50
- Test system: OVCAR-3 ovarian
- Experimental details: NCI tumour cell line growth inhibition, 48 h

Consider the reported GI50 for these molecules:
# Record smiles, GI50
measured = [
    ("NC(N)=NS(=O)(=O)c1ccc(Nc2c3ccccc3nc3c(C(=O)NCCO)cccc23)cc1", "17.1 µM"),
    ("O=C(Nc1ccc(-n2ccc3c(NC(=O)c4ccccc4)nccc32)cc1)c1ccc(Cl)c(C(F)(F)F)c1", "1.35 µM"),
]

Now consider the entry below.
// query // lookup GI50 for `OCc1cc2ccccc2c2c3c(ccc12)OCO3`
// result 36.4 µM

###

TGI values for the molecules below.
- Tested on: CCRF-CEM leukemia
- Experimental details: NCI tumour cell line growth inhibition, 48 h
Where a SMILES comes first, the peptide text is derived from it. [ ]: non-standard residue; d: D form. The star is where a group is joined. NMeAc5c = CNC1(C(=O)O)CCCC1; Boc = CC(C)(C)OC(=O)*; OBn = c1ccc(CO*)cc1

# Molecule, TGI
measured = [
    ("Nc1nc(-n2c(-c3ccccc3)nc3c(Br)cc(Br)cc3c2=O)nnc1-c1cccc(Cl)c1Cl", "> 100 µM"),
    ("Cc1ccc(S(=O)(=O)OC[C@@H]2CO2)cc1", "> 100 µM"),
    ("CC(C)(C)N1CSC(=S)N(Cc2ccco2)C1", "4.03 µM"),
]

// query # returns recorded TGI (system: CCRF-CEM leukemia) for Fc1[nH]nc2ccc([C@@H]3Nc4ccc5[nH]ncc5c4[C@H]4C5CCC(C5)[C@@H]34)cc12 (stereo not given in full)
// result 16.5 µM

// query Now consider `CO/C(=N\N=C\c1ccc(C(F)(F)F)cc1)c1ccncc1` .
// result > 10 µM

// query // next record CN(C(=O)C(Cc1ccccc1)NC(=O)OC(C)(C)C)C1(C(=O)NC(Cc2ccccc2)C(=O)OCc2ccccc2)CCCC1 (stereo not drawn) (Boc-Phe-[NMeAc5c]-Phe-OBn; configuration not given here)
// result > 100 µM

// query Now give it for `COc1cc(C(=O)N(C(=S)OCc2ccccn2)c2ccccc2)cc(OC)c1OC` too.
// result > 100 µM

// query Input `COc1ccc(-c2c(C#N)c(-c3ccc(C)cc3)n(NS(=O)(=O)c3ccc(C)cc3)c(=O)c2C#N)cc1`
// result 81.6 µM

// query Next record, please: COC1/C=C/OC2(C)Oc3c(C)c(O)c4c(O)c(c(/C=N/Nc5ccc([N+](=O)[O-])cc5[N+](=O)[O-])c(O)c4c3C2=O)NC(=O)C(C)=C/C=C/C(C)C(O)C(C)C(O)C(C)C(OC(C)=O)C1C (stereo not given)
// result > 50 µM

// query One more molecule: `C[C@@H]1CC[C@]2(C(=O)O)CC[C@]3(C)C(=CC[C@@H]4[C@@]5(C)CC[C@H](O)C(C)(C)[C@@H]5CC[C@]43C)[C@@H]2[C@]1(C)O`
// result 23.2 µM
